B1: Flag-CNK^2–549 [Drosophila] / Myc-MEK [Drosophila] (parent)
chain 1: MSKNKLNLVLPPVNTEATVAAATVAPTPPFKTPSGTDTHSLLGKPKTSIDALTETLEGLDMGDTERKRIKMFLSQKEKIGELSDEDLEKLGELGSGNGGVVMKVRHTHTHLIMARKLIHLEVKPAIKKQILRELKVLHECNFPHIVGFYGAFYSDGEISICMEYMDGGSLDLILKRAGRIPESILGRITLAVLKGLSYLRDNHAIIHRDVKPSNILVNSSGEIKICDFGVSGQLIDSMANSFVGTRSYMSPERLQGTHYSVQSDIWSLGLSLVEMAIGMYPIPPPNTATLESIFADNAEESGQPTDEPRAMAIFELLDYIVNEPPPKLEHKIFSTEFKDFVDICLKKQPDERADLKTLLSHPWIRKAELEEVDISGWVCKTMDLPPSTPKRNTSPN
chain 2: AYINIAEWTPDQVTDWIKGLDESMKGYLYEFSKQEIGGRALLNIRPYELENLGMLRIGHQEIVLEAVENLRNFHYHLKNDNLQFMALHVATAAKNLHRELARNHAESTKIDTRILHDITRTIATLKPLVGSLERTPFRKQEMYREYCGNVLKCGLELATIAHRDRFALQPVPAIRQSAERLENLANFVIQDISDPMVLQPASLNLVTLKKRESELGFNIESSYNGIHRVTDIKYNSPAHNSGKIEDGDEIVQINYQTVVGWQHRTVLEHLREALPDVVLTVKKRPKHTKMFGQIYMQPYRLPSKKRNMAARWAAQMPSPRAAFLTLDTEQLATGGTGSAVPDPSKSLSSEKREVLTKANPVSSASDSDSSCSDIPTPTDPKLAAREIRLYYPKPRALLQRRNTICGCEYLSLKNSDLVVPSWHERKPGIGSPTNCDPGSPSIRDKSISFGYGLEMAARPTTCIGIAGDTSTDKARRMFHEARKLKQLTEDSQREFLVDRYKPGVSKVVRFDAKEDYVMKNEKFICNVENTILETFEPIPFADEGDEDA

Variants of: B1
Experiment: GST pull-down, immunoblot quantification
Conditions: with Myc-MEK [Drosophila]; S2 cells; GST-HYP + RRKM (Ha-RASV12, Pyo-RAF, V5-KSR, Myc-MEK) co-expressed; captured via GST-HYP; anti-MEK blot; parent: 1
ratio to parent reference
measured endpoint: ratio to parent

- variant spec: "chain 2 S193A"
  quantitative readout: 1.01
- variant spec: "chain 2 D194K"
  quantitative readout: 0.05
- variant spec: "chain 2 V197E"
  quantitative readout: 0.04
- variant spec: "chain 2 M196E"
  quantitative readout: 0.28
- variant spec: "chain 2 Q199A"
  quantitative readout: 0.68
